- system.tested: somatostatin receptor type 2 (SSTR2) (UniProt P30874 1-369)
- Sequence (P30874 whole entry): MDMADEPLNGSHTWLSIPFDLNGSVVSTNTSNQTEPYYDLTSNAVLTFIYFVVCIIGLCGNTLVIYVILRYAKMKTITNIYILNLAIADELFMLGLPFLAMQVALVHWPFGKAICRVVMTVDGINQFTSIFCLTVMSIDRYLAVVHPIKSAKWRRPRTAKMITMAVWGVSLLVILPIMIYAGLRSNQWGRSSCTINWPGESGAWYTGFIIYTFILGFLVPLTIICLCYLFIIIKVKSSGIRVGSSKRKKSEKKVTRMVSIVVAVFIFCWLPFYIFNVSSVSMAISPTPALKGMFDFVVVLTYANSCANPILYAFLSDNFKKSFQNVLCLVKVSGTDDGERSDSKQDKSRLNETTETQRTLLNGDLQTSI
- protocol.description: cell-based or functional assay
Positions of bridges follow the written chain, without caps; N, C: chain ends. Non-standard residues stand in square brackets, D forms with d. *: point of attachment. thiocarbamate = -NH-(C=O)-S- bridge between side chains (disulfide isostere); dPhe(4-CONH2) = NC(=O)c1ccc(C[C@@H](N)C(=O)O)cc1; Phe(4-Cl) = N[C@@H](Cc1ccc(Cl)cc1)C(=O)O; dDap = NC[C@@H](N)C(=O)O; Bz = O=C(c1ccccc1)*
Label MET when IC50 (PathHunter β-Arrestin, antagonist mode) < 20 nM; otherwise NOT MET.

>>> assigned_class("H-[Phe(4-Cl)][dDap]Y[dPhe(4-CONH2)]KTC[dY]-NH2 (bridge 2-7 via thiocarbamate) [Compound 60: H-Cpa-cyclo[DDap-Tyr-DPhe(4-CONH2)-Lys-Thr-Cys]-DTyr-NH2]")
"NOT MET"
>>> assigned_class("H-[Phe(4-Cl)][dC]Y[dPhe(4-acetamidomethyl)]KTC[dY]-NH2 (disulfide 2-7) [Compound 6: H-Cpa-cyclo[DCys-Tyr-D-(4-acetamidomethyl)Phe-Lys-Thr-Cys]-DTyr-NH2]")
"NOT MET"
>>> assigned_class("XCYXKTCX (HELM PEPTIDE1{[N[C@@H](Cc1ccc(Cl)cc1)C(=O)[*:2]].C.Y.[NC(=O)c1ccc(C[C@@H](N[*:1])C(=O)[*:2])cc1].K.T.C.[dY].[am]}$PEPTIDE1,PEPTIDE1,2:R3-7:R3$$$V2.0; SMILES C[C@@H](O)[C@@H]1NC(=O)[C@H](CCCCN)NC(=O)[C@@H](Cc2ccc(C(N)=O)cc2)NC(=O)[C@H](Cc2ccc(O)cc2)NC(=O)[C@@H](NC(=O)[C@@H](N)Cc2ccc(Cl)cc2)CSSC[C@@H](C(=O)N[C@H](Cc2ccc(O)cc2)C(N)=O)NC1=O) [Compound 39: H-Cpa-cyclo[Cys-Tyr-D-(4-carbamoyl)Phe-Lys-Thr-Cys]-DTyr-NH2]")
"NOT MET"
>>> assigned_class("succinamoyl-[Phe(4-Cl)][dC]Y[dPhe(4-CONH2)]K(Me)TC[dY]-NH2 (disulfide 2-7) [Compound 54: H2N(CO)(CH2)2(CO)-Cpa-cyclo[D-Cys-Tyr-D-Phe(4-carbamoyl)-Lys(Nε-Me)-Thr-Cys]-D-Tyr-NH2]")
"MET"
>>> assigned_class("XXYXKTCX (HELM PEPTIDE1{[N[C@@H](Cc1ccc(Cl)cc1)C(=O)[*:2]].[dC].Y.[N#Cc1ccc(C[C@@H](N[*:1])C(=O)[*:2])cc1].K.T.C.[dY].[am]}$PEPTIDE1,PEPTIDE1,2:R3-7:R3$$$V2.0; SMILES C[C@@H](O)[C@@H]1NC(=O)[C@H](CCCCN)NC(=O)[C@@H](Cc2ccc(C#N)cc2)NC(=O)[C@H](Cc2ccc(O)cc2)NC(=O)[C@H](NC(=O)[C@@H](N)Cc2ccc(Cl)cc2)CSSC[C@@H](C(=O)N[C@H](Cc2ccc(O)cc2)C(N)=O)NC1=O) [Compound 59: H-Cpa-[DCys-Tyr-DPhe(4-CN)-Lys-Thr-Cys]-DTyr-NH2]")
"NOT MET"
>>> assigned_class("XXYXXTCX (HELM PEPTIDE1{[N[C@@H](Cc1ccc(Cl)cc1)C(=O)[*:2]].[dC].Y.[NC(=O)c1ccc(C[C@@H](N[*:1])C(=O)[*:2])cc1].[meK].T.C.[dY].[am]}$PEPTIDE1,PEPTIDE1,2:R3-7:R3$$$V2.0; SMILES C[C@@H](O)[C@@H]1NC(=O)[C@H](CCCCN)N(C)C(=O)[C@@H](Cc2ccc(C(N)=O)cc2)NC(=O)[C@H](Cc2ccc(O)cc2)NC(=O)[C@H](NC(=O)[C@@H](N)Cc2ccc(Cl)cc2)CSSC[C@@H](C(=O)N[C@H](Cc2ccc(O)cc2)C(N)=O)NC1=O) [Compound 72: H-Cpa-cyclo[DCys-Tyr-D-(4-carbamoyl)Phe-(N-alpha-Me)Lys-Thr-Cys]-DTyr-NH2]")
"MET"
>>> assigned_class("XXYXKTCX (HELM PEPTIDE1{[N[C@@H](Cc1ccc(Cl)cc1)C(=O)[*:2]].[dC].Y.[NC(=O)c1ccc(C[C@@H](N[*:1])C(=O)[*:2])cc1].K.T.C.[dY].[am]}$PEPTIDE1,PEPTIDE1,2:R3-7:R3$$$V2.0; SMILES C[C@@H](O)[C@@H]1NC(=O)[C@H](CCCCN)NC(=O)[C@@H](Cc2ccc(C(N)=O)cc2)NC(=O)[C@H](Cc2ccc(O)cc2)NC(=O)[C@H](NC(=O)[C@@H](N)Cc2ccc(Cl)cc2)CSSC[C@@H](C(=O)N[C@H](Cc2ccc(O)cc2)C(N)=O)NC1=O) [Compound 4: H-Cpa-cyclo[DCys-Tyr-D-(4-carbamoyl)Phe-Lys-Thr-Cys]-DTyr-NH2]")
"MET"
>>> assigned_class("Bz-G[Phe(4-Cl)][dC]Y[dPhe(4-CONH2)]K(Me)TC[dY]-NH2 (disulfide 3-8; SMILES CNCCCC[C@@H]1NC(=O)[C@@H](Cc2ccc(C(N)=O)cc2)NC(=O)[C@H](Cc2ccc(O)cc2)NC(=O)[C@H](NC(=O)[C@H](Cc2ccc(Cl)cc2)NC(=O)CNC(=O)c2ccccc2)CSSC[C@@H](C(=O)N[C@H](Cc2ccc(O)cc2)C(N)=O)NC(=O)[C@H]([C@@H](C)O)NC1=O) [Compound 50: Ph(CO)NHCH2(CO)-Cpa-cyclo[D-Cys-Tyr-D-Phe(4-carbamoyl)-Lys(Nε-Me)-Thr-Cys]-D-Tyr-NH2]")
"MET"

Please check: IC50 (PathHunter β-Arrestin, antagonist mode) for XXYXKTCX (HELM PEPTIDE1{[N[C@@H](Cc1ccc(Cl)cc1)C(=O)[*:2]].[dC].Y.[COc1ccc(NC(=O)Nc2ccc(C[C@@H](N[*:1])C(=O)[*:2])cc2)cc1].K.T.C.[dY].[am]}$PEPTIDE1,PEPTIDE1,2:R3-7:R3$$$V2.0; SMILES COc1ccc(NC(=O)Nc2ccc(C[C@H]3NC(=O)[C@H](Cc4ccc(O)cc4)NC(=O)[C@H](NC(=O)[C@@H](N)Cc4ccc(Cl)cc4)CSSC[C@@H](C(=O)N[C@H](Cc4ccc(O)cc4)C(N)=O)NC(=O)[C@H]([C@@H](C)O)NC(=O)[C@H](CCCCN)NC3=O)cc2)cc1) [Compound 28: H-Cpa-cyclo[DCys-Tyr-D-(4-(4-methoxyphenyl)ureido)Phe-Lys-Thr-Cys]-DTyr-NH2] , strictly under 20 nM or not?
NOT MET
